assay: Inhibition of Plasmodium falciparum falcipain 3
measure: IC50

| molecule | IC50 |
| --- | --- |
| CN(C)CCCNc1c2ccccc2[n+](C)c2c1[nH]c1ccccc12.[Cl-] | > 50 µM |

Ask: Entry C[n+]1c2ccccc2cc2[n-]c3ccccc3c21.Cl [CRYPTOLEPINE HYDROCHLORIDE] has what IC50?
Reply: > 50 µM

Ask: Report IC50 for C[n+]1c2ccccc2c(NCCN)c2[nH]c3ccccc3c21.[Cl-] please.
Reply: > 25 µM

---

test system: Heme; assay: Binding affinity to heme by UV-visible titration
// reported Ka per item
Reply with just the number (in ×10⁶ /M).

| smiles | Ka, ×10⁶ /M |
| --- | --- |
| C[n+]1c2ccccc2c(NCCN)c2[nH]c3ccccc3c21.[Cl-] | 0.127 |
| C[n+]1c2ccccc2c(NC2CCNCC2)c2[nH]c3ccccc3c21.[Cl-] | 0.154 |
| CC(C)CN1CCC(Nc2c3ccccc3[n+](C)c3c2[nH]c2ccccc23)CC1.[Cl-] | 0.227 |

Ask: Data request, read-out Ka, for C[n+]1c2cc(Cl)ccc2c(NC2CCNCC2)c2[nH]c3ccccc3c21.[Cl-]
Reply: 0.18

Ask: Data request, read-out Ka, for CCN(CC)Cc1ccc(Nc2c3ccccc3[n+](C)c3c2[nH]c2ccccc23)cc1O.[Cl-]
Reply: 0.075

Ask: Can you look up the measured Ka of C[n+]1c2ccccc2c(NC2CCN(Cc3ccccc3O)CC2)c2[nH]c3ccccc3c21.[Cl-] for me?
Reply: 0.108

Ask: Returns the measured Ka for the input molecule. Input: CC(C)NCCCNc1c2ccccc2[n+](C)c2c1[nH]c1ccccc12.[Cl-]
Reply: 0.2

Ask: Fill in: Ka of C[n+]1c2ccccc2c(Nc2cccnc2)c2[nH]c3ccccc3c21.[Cl-] is ___
Reply: 0.17

Ask: Can you share its Ka? I mean this molecule: CCN(CC)CCCCNc1c2ccccc2[n+](C)c2c1[nH]c1ccccc12.[Cl-]
Reply: 0.15

---

assay: Selectivity index, ratio of IC50 for african green monkey Vero cells to IC50 for chloroquine-resistant ring stage Plasmodium falciparum W2; type: toxicity, cell-based; conditions: read-out: Ratio IC50
measure: selectivity ratio

| smiles | selectivity ratio |
| --- | --- |
| C[n+]1c2ccccc2c(Nc2ccccc2)c2[nH]c3ccccc3c21.[Cl-] | 2 |
| CCN(CC)Cc1ccc(Nc2c3ccccc3[n+](C)c3c2[nH]c2ccccc23)cc1O.[Cl-] | 17 |
| CCN(CC)c1c2ccccc2[n+](C)c2c1[nH]c1ccccc12.[Cl-] | 2 |
| C[n+]1c2cc(Cl)ccc2c(NC2CCNCC2)c2[nH]c3cc(Cl)ccc3c21.[Cl-] | 16 |

Ask: Name the recorded selectivity ratio for C[n+]1c2ccccc2c(NC2CCN(Cc3ccccc3O)CC2)c2[nH]c3ccccc3c21.[Cl-] .
Reply: 10

Ask: Give its selectivity ratio value. Item: C[n+]1c2ccccc2c(NCCCCN)c2[nH]c3ccccc3c21.[Cl-]
Reply: 1310

---

test system: Vero; experiment: Cytotoxicity against african green monkey Vero cells after 48 hrs by MTT assay; format: cell-based; conditions: Chlorocebus sabaeus
measure: pIC50
Reminder that pIC50 is minus the log10 of a molar concentration.

Record excerpt, results attached:
| smiles | pIC50 |
| --- | --- |
| CCN(CC)CCCCNc1c2ccccc2[n+](C)c2c1[nH]c1ccccc12.[Cl-] | 5.00 |
| CCN(CC)CCCNc1c2ccc(Cl)cc2[n+](C)c2c1[nH]c1ccccc12.[Cl-] | 4.89 |

Switching to the query record.
Ask: So what does the record say about pIC50 for C[n+]1c2ccccc2c(NCCCN)c2[nH]c3ccccc3c21.[Cl-] ?
Reply: 5.00

---

Below, each of the compounds is paired with its reported IC50 value.
tested on: Plasmodium falciparum; test: Antiplasmodial activity against chloroquine-sensitive, mefloquine-resistant ring stage Plasmodium falciparum D6 infected in human red blood cells after 48 hrs; type: functional, organism-based; conditions: D6, 48 h
Express the result in nM but write the number alone.

Ask: What IC50 value was documented for this compound, CN(C)CCCNc1c2ccccc2[n+](C)c2c1[nH]c1ccccc12.[Cl-] ?
Reply: 46

Ask: # IC50 lookup, item C[n+]1c2ccccc2c(NCCCN2CCCCC2)c2[nH]c3ccccc3c21.[Cl-]
Reply: 34

Ask: Can you look up the measured IC50 of C[n+]1c2ccccc2c(Nc2ccccc2)c2[nH]c3ccccc3c21.[Cl-] for me?
Reply: 154

---

test system: Nucleic Acid; test: Binding affinity to s(GATCCTAGGATC)2-DNA by fluorescence spectroscopy; type: nucleic-acid assay
Quick rule: Ka of at least 1 ×10⁶ /M means condition met, below that means condition not met.

Consider the worked cases shown below.
| smiles | className |
| --- | --- |
| C[n+]1c2ccccc2c(NC2CCNCC2)c2[nH]c3ccccc3c21.[Cl-] | condition not met |
| CN(C)CCNc1c2ccccc2[n+](C)c2c1[nH]c1ccccc12.[Cl-] | condition met |
| C[n+]1c2cc(Cl)ccc2c(NC2CCNCC2)c2[nH]c3ccccc3c21.[Cl-] | condition met |
| C[n+]1c2ccccc2c(NCCN)c2[nH]c3ccccc3c21.[Cl-] | condition not met |

Ask: Check the entry C[n+]1c2ccccc2c(NCCCCN)c2[nH]c3ccccc3c21.[Cl-] : does Ka equal or exceed 1 ×10⁶ /M?
Reply: condition met

---

test system: Heme; assay: Binding affinity to heme by UV-visible titration
molecules and their reported Ka
Write down the numeric answer in ×10⁶ /M and omit the unit.

Answered examples (3):
| smiles | testTarget | Ka [×10⁶ /M] |
| --- | --- | --- |
| C[n+]1c2cc(Cl)ccc2c(NC2CCNCC2)c2[nH]c3cc(Cl)ccc3c21.[Cl-] | Heme | 0.12 |
| CCN(CC)c1c2ccccc2[n+](C)c2c1[nH]c1ccccc12.[Cl-] | Heme | 0.19 |
| CN(C)CCNc1c2ccccc2[n+](C)c2c1[nH]c1ccccc12.[Cl-] | Heme | 0.12 |

In the following, a different molecule is considered.
Ask: Given the molecule C[n+]1c2ccccc2c(NCCCN2CCCCC2)c2[nH]c3ccccc3c21.[Cl-] , what is its reported Ka?
Reply: 0.161

---

# maps each entry to its IC50
tested on: Plasmodium falciparum; experiment: Antiplasmodial activity against chloroquine-sensitive, mefloquine-resistant ring stage Plasmodium falciparum D6 infected in human red blood cells after 48 hrs; assay type: functional, organism-based; conditions: D6, 48 h
Write the answer as a number in µM, unit excluded.

| molecule | IC50 / µM |
| --- | --- |
| CC(C)CN1CCC(Nc2c3ccccc3[n+](C)c3c2[nH]c2ccccc23)CC1.[Cl-] | 0.086 |
| C[n+]1c2ccccc2c(NC2CCNCC2)c2[nH]c3ccccc3c21.[Cl-] | 0.059 |
| CN(C)CC(C)(C)CNc1c2ccccc2[n+](C)c2c1[nH]c1ccccc12.[Cl-] | 0.25 |
| C[n+]1c2cc(Cl)ccc2c(NC2CCNCC2)c2[nH]c3cc(Cl)ccc3c21.[Cl-] | 0.03 |
| CC(C)NCCCNc1c2ccccc2[n+](C)c2c1[nH]c1ccccc12.[Cl-] | 0.034 |

Ask: Look at this molecule and give its reported IC50. CCN(CC)Cc1ccc(Nc2c3ccccc3[n+](C)c3c2[nH]c2ccccc23)cc1O.[Cl-]
Reply: 0.024

Ask: Give its IC50 value. Item: CCN(CC)CCNc1c2ccccc2[n+](C)c2c1[nH]c1ccccc12.[Cl-]
Reply: 0.07

Ask: What IC50 value was documented for this molecule, C[n+]1c2ccccc2c(NC2CCN(Cc3ccccc3)CC2)c2[nH]c3ccccc3c21.[Cl-] ?
Reply: 0.086

Ask: # input molecule: C[n+]1c2ccccc2c(NCCN)c2[nH]c3ccccc3c21.[Cl-] ; wanted: its IC50
Reply: 0.107

Ask: Look up IC50 for this molecule: C[n+]1c2ccccc2c(Nc2cccnc2)c2[nH]c3ccccc3c21.[Cl-]
Reply: 0.166

Ask: Value lookup for IC50; key = CC(CN(C)C)Nc1c2ccccc2[n+](C)c2c1[nH]c1ccccc12.[Cl-] (stereo unspecified)
Reply: 0.078
